test system: TK-10 renal; experiment: NCI tumour cell line growth inhibition, 48 h
measured-property: TGI

Example entries begin here.
Cc1ccc(NCCN(C)CC(C)O)c2c(=O)c3ccc(Cl)cc3sc12 (stereo unspecified); > 100 µM
COc1ncnc2c1ncn2C/C(Br)=C(\Br)CCl; 7.64 µM
COc1cc2c(c(OC)c1OC)C(=O)c1c-2n(CCCN)c(=O)c2cc([N+](=O)[O-])ccc12; 1.3 µM
CC(=O)OCC1OC(Sc2nc(-c3ccc(C)cc3)c(C#N)c(=O)n2C2OC(COC(C)=O)C(OC(C)=O)C(OC(C)=O)C2OC(C)=O)C(OC(C)=O)C(OC(C)=O)C1OC(C)=O (stereo unspecified); > 100 µM
CN(C)CC1CCC(CN(C)C)C1=NO (stereo unspecified); > 100 µM

// moving on: another record for TGI
## Task Entry `COc1ccc(Oc2nc3cc(C(F)(F)F)ccc3nc2C(C)C)cc1` has what TGI?
## Result > 100 µM

---

test system: A549 NSCLC; assay: NCI tumour cell line growth inhibition, 48 h
measured-property: TGI

Example entries begin here.
O=C(N/N=C/c1cc(Br)cc(Br)c1[O-])c1ccccc1O.O=C(N/N=C/c1cc(Br)cc(Br)c1[O-])c1ccccc1O.[Cl-].[Fe+3]; 36.8 µM
Cc1occc1C(=S)Nc1ccc(Cl)c(C(=O)OCC2CC2)c1; > 100 µM
C[n+]1ccccc1/C=C/c1ccc2c(c1)OCO2; > 10 µM
CC(=O)OC1C(O)COC(Oc2c(C)c3c4c(c2O)[C@@H](C)CC[C@@H]4[C@@H](C)C[C@H]3C=C(C)C)C1O (stereo partly drawn); 40.3 µM
COc1cc(CSc2ccc(O)cc2)cc(O)c1O; > 100 µM

## Task Entry CC(=O)NC1C(OCc2ccccc2)OC(CO)C(O)C1OCC(=O)NC(C)C(=O)NC(CCC(=O)OCCNC(=O)c1cccc2cc3ccccc3nc12)C(N)=O (stereo not drawn) has what TGI?
## Result 23.4 µM

## Task Entry `CCC(=O)[O-].CCC(=O)[O-].N.N.N.N.[Co+3].[O-][Cl+3]([O-])([O-])[O-]` has what TGI?
## Result > 100 µM

## Task Entry C=CCCC12CCCC(=O)C1Sc1ccc3ccccc3c12 (stereo not drawn) has what TGI?
## Result 24.5 µM

---

system: UACC-257 melanoma; assay: NCI tumour cell line growth inhibition, 48 h
Listed next: entries and their corresponding TGI.
Give the number; µM is assumed, so skip it.

## Task Entry `COc1cccc(NC(=O)c2ccc(C(F)(F)F)nc2Nc2ccc(Cl)cc2C)c1` has what TGI?
## Result 26.2

## Task Entry `COc1ccc(OC)c(-c2cn3nc(-c4c[nH]c5ccc(Br)cc45)sc3n2)c1` has what TGI?
## Result 30.7

## Task Entry `O=[N+]([O-])/C(Cl)=C(\Sc1ccccc1)C(Cl)=C(Cl)Cl` has what TGI?
## Result 0.994

---

test system: NCI-H522 lung; assay: NCI tumour cell line growth inhibition, 48 h
Listed next: entries and their corresponding TGI.

## Task Request - read-out TGI | tested on NCI-H522 lung | compound CC(=O)C1C(=O)C(=O)N(c2ccc(Cl)cc2C)C1=O (stereo not drawn)
## Result > 100 µM

## Task Request - read-out TGI | tested on NCI-H522 lung | compound `CO/N=C(\COc1ccc2c(=O)cc(-c3ccccc3)oc2c1)c1ccc(OC)cc1`
## Result > 100 µM

## Task Request - read-out TGI | tested on NCI-H522 lung | compound C/C(=C\c1ccccc1)C(O)S(=O)(=O)O (stereo not drawn)
## Result > 100 µM

---

system: A498 renal; assay: NCI tumour cell line growth inhibition, 48 h
measured-property: TGI

CSc1ccc2c(cc1=O)C(NC(=O)c1cc(O)c(OC(=O)O)c(O)c1)CCc1cc(O)c(O)c(O)c1-2 (stereo not drawn); > 90 µM
CO/N=C(\COc1ccc2c(=O)cc(-c3ccccc3)oc2c1)c1ccc(OC)cc1; > 100 µM
CC(C)NCCCNC1=C(Cl)C(=O)c2ccccc2C1=O; 25.1 µM
CCCCCCCCCCCCCCCC[N+](C)(C)C; 5.25 µM

## Task Entry NC(Cc1ccc2oc3cc(=O)c4ccccc4c-3nc2c1)C(=O)O (stereo not drawn) has what TGI?
## Result > 84.6 µM

## Task Entry `CCN(CCc1ccc(F)cc1)c1ccc(CO)c(Cl)c1` has what TGI?
## Result 0.268 µM

## Task Entry `CCCCNC(=O)C1=C(C)NC(C)=C(C(=O)NCCCC)C1` has what TGI?
## Result > 100 µM

## Task Entry `Cc1nc(SCC(=O)Nc2ccccc2)c2sc(=S)n(-c3ccccc3)c2n1` has what TGI?
## Result > 10 µM

---

test system: KM20L2 colon; assay: NCI tumour cell line growth inhibition, 48 h
Listed next: entries and their corresponding TGI.

Example entries begin here.
CC(=O)C1C(=O)C(=O)N(c2ccc(Cl)cc2C)C1=O (stereo not drawn); > 100 µM
CN1C(=O)NC2(O)c3ccccc3C(=O)C12O (stereo not drawn); > 100 µM
COc1cc2c(cc1O)CCN[C@@]21CS[C@H]2c3c(OC(C)=O)c(C)c4c(c3C(COC1=O)N1C2C2c3c(cc(C)c(OC)c3O)CC([C@@H]1O)N2C)OCO4 (stereo partly drawn); 6.01e-05 µM
CCOC(=O)NC(=O)c1cn(-c2ccc(CCOC(=O)CCCCCCCCC(=O)OCCc3ccc(-n4cc(C(=O)NC(=O)OCC)c(=O)[nH]c4=O)cc3)cc2)c(=O)[nH]c1=O; > 100 µM
O=C(Cc1ccccc1)NN1C(=O)C(Cl)C1c1cc(Br)cc(Br)c1O (stereo not drawn); > 100 µM

## Task Entry `COc1cccc(C(=O)O)c1Cc1cccc2ccccc12` has what TGI?
## Result > 100 µM

## Task Entry `C=C(/C=C/C=C(/CCC=C(C)C)COC(C)=O)[C@@H]1CC[C@]2([C@H](CCCO)/C(=C(/C)C=O)CC[C@]2(C)O)[C@@H]1O` has what TGI?
## Result 27.9 µM

## Task Entry `CC(C)(C)c1cc2c(OP(c3ccccc3)c3ccccc3)c(c1)Cc1cc(C(C)(C)C)cc(c1OP(c1ccccc1)c1ccccc1)Cc1cc(C(C)(C)C)cc(c1OP(c1ccccc1)c1ccccc1)Cc1cc(C(C)(C)C)cc(c1OP(c1ccccc1)c1ccccc1)C2` has what TGI?
## Result > 50 µM

---

test system: SK-OV-3 ovarian; assay: NCI tumour cell line growth inhibition, 48 h
measured-property: log10 of TGI (log10 of the value in µM)
Response schema: value (number) is log10 of TGI in units of µM.

Example entries begin here.
C/C=C1/CN2CC[C@@H]3c4ccccc4N4[C@H](C(=O)OC)[C@H]1C[C@H]2[C@]34/C=C/C1=COC[C@@H]2[C@H]1C[C@H]1c3c(c4ccccc4n3C)C[C@@H]2N1C; 0.91
CN([N-]C(=O)CC(=O)[N-]N(C)C(=S)c1ccccc1)C(=S)c1ccccc1.[Cu+2]; -0.94
CCOc1ccc2c(-c3ccnc(Nc4cccc(C(F)(F)F)c4)n3)cnn2n1; 1.28
CCN(CC)CCNC(=O)c1ccccc1Nc1c(Cl)cccc1Cl; 1.48

// moving on: another record for log10 of TGI
## Task Entry `O=C1c2ccccc2C(=O)c2c1c(NCCNCCO)c1cc[nH]c1c2NCCNCCO` has what log10 of TGI?
## Result 1.13

---

system: K-562 leukemia; test: NCI tumour cell line growth inhibition, 48 h
Listed next: entries and their corresponding TGI.

C=CC1(C)/C(=N\O)C(C)(CC)C(=O)N1O (stereo not drawn); > 100 µM
CCOC(=O)c1c2ccccc2n2c(=O)n(C)nnc12; > 100 µM

// moving on: another record for TGI
## Task Entry COc1cc(C(C)c2cc3c(cc2OCCOCCOc2cc4c(cc2C(C)c2cc(OC)c(OC)c(OC)c2)OCO4)OCO3)cc(OC)c1OC (stereo not drawn) has what TGI?
## Result > 100 µM

---

system: SF-539 CNS; test: NCI tumour cell line growth inhibition, 48 h
Listed next: entries and their corresponding TGI.

## Task Entry `Cn1cc(C=C(C#N)C#N)c(=O)n(C)c1=O` has what TGI?
## Result > 100 µM

## Task Entry `CN[C@@H]1[C@H](O)[C@H](NC)[C@H]2O[C@@]3(O)C(=O)C[C@@H](C)O[C@H]3O[C@@H]2[C@H]1O` has what TGI?
## Result > 100 µM

## Task Entry COC(=O)c1c(C)cccc1C1CN=NC12Cc1c(C)cccc1C2=O (configuration not stated) has what TGI?
## Result > 100 µM

## Task Entry `c1csc(-c2cc(-c3ccsc3)c(-c3cccs3)s2)c1` has what TGI?
## Result > 100 µM

## Task Entry C1CSCCSS[C@@H]2CCCCC2SC1 (some centres not stated) has what TGI?
## Result > 100 µM
